# studyTarget: MT2A (MT2, Cu10MT, Cu10MT2) (Oryctolagus cuniculus)
# Sequence (P18055 whole entry): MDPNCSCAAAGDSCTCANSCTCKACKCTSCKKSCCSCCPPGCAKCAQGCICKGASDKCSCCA
# testDetails: ESI-MS demetallation of Cu10MT, Hill fit
# Type: binding
# runParameters: C50 for Cu(I) extraction from 3 uM Cu10MT, not a protein affinity; 10 mM DTT, 20 mM ammonium acetate, pH 7.3, 25 °C; all CuMT-TTM complexes counted; no ternary complexes stated; read-out: C50 (mM) for Cu1Cox17
property: IC50 (mM)
Answers are plain numbers, in mM.

Query block: What value of IC50 has been recorded for this entry: CCN(CC)C(=S)S [DETC, diethyl dithiocarbamate]
Result block: 0.772
